Origin of the recorded values: patent US10633579B2

- Experiment Notes: Miscibility test with common oilfield solvents (Tables 3-5)
- Assay type: physicochemical
- Set-up: key: S = separate; M = miscible
- Measurement Parameters: 50/50 volume per volume
- Protocol: For each test solvent, it is blended with a common solvent at 50/50 volume per volume ratio. It is shaken vigorously for about a minute and let stand for about 5 mins. A complete miscibility is recorded if there is no formation of layers. Formation of turbid mixture or multiple layers is recorded as immiscible or separate.
Reported Endpoint: Solubility in Exxsol D100

Molecule	Reported Endpoint	Result
COC(=O)C(C)CCC(=O)N(C)C (stereo not shown) [Polarclean]	Solubility in Exxsol D100	S
CCCCOCC(C)O (stereo not shown) [Dowanol, propylene glycol n-butyl ether]	Solubility in Exxsol D100	M
CC(C)O [IPA, isopropyl alcohol]	Solubility in Exxsol D100	M
CC1(C)OCC(CO)O1 (stereo not shown) [Augeo SL 191]	Solubility in Exxsol D100	S

---

- Experiment Notes: Miscibility test with common oilfield solvents (Tables 3-5)
- Assay type: physicochemical
- Set-up: key: S = separate; M = miscible
- Measurement Parameters: 50/50 volume per volume
Reported Endpoint: Solubility in Dodecane (to mimic Kerosen)

Molecule	Result
CC1(C)OCC(CO)O1 (stereo not shown) [Augeo SL 191]	S
CC(C)O [IPA, isopropyl alcohol]	M
COC(=O)C(C)CCC(=O)N(C)C (stereo not shown) [Polarclean]	S
CCCCOCC(C)O (stereo not shown) [Dowanol, propylene glycol n-butyl ether]	M
